test system: L1210 leukemia ip in BDF1 mice, survival T/C; test: NCI In Vivo Anticancer Drug Screen. Data for tumor model L1210 Leukemia (intraperitoneal) in B6D2F1 (BDF1) mice; conditions: endpoint: mean survival time; dose: 200.0 mg/kg/injection; schedule: Q01DX009 (ip); vehicle: saline with Tween-80; higher = longer survival
Inconclusive results and toxic doses are left out.
measured endpoint: T/C

Nc1ccc([N+](=O)[O-])cc1C(O)(C(F)(F)F)C(F)(F)F (tested in a mixture with another compound)    94 % of control
Cc1ccc(Cl)cc1NC(=O)OCCCl    91 % of control
O=C(CCC(C(=O)c1ccccc1)c1ccccc1)c1ccccc1 (centres undefined)    87 % of control
O=[N+]([O-])c1ccc(OCc2ccccc2)c([N+](=O)[O-])c1    87 % of control
CCCCCCCCCCCCCCCC(=O)N(c1ccc(N)cc1)C(C)CCCN(CC)CC (centres undefined)    100 % of control
Cc1c(C)c(C)c([N+](=O)[O-])c([N+](=O)[O-])c1C    93 % of control
CCCCCCC(O)CCCCCCCCCCC(=O)O (centres undefined)    93 % of control
C/C=C/C(=O)Nc1cccc(O)c1    91 % of control
FC1(F)SC2c3cccc4cccc(c34)C2C1(F)F (centres undefined)    104 % of control
OCC(CO)(CCl)CCl    103 % of control
Cc1nnc(N)s1    92 % of control
CCOC(=O)CNC(=O)OCCN1CCNC1=S    100 % of control
Clc1ccc(Cl)c(N=NNc2cc(Cl)ccc2Cl)c1    101 % of control
COC(=O)C(C)C(O)c1ccc(C)cc1 (centres undefined)    93 % of control
O=C(O)C(O)c1cccc2ccccc12 (centres undefined)    100 % of control
CS(=O)(=O)C(=Cc1ccccc1Cl)S(C)(=O)=O    100 % of control
BrCCCCOCBr    106 % of control
CC(C)C/C=C/C1CCCCC1 (tested in a mixture with another compound)    97 % of control
CCCCCCCCOc1ccccn1    91 % of control
Cc1cc(NC(=O)c2ccccc2)c(Cl)cc1N    93 % of control
COC(=O)/C(Br)=C\c1ccc(-c2ccccc2)cc1    93 % of control
c1ccc2c(c1)CCC1=C2CCCC1    98 % of control
OCC1CC=CCC1 (centres undefined)    106 % of control
CCCCCCC(O)/C=C/c1ccc(Cl)cc1 (centres undefined)    91 % of control
NC(Cc1c[nH]c2ccccc12)C(=O)OCc1ccccc1 (centres undefined)    104 % of control
CC(C)(CC(=O)O)Cc1ccccc1    101 % of control
O=c1[nH]c(=O)c2ccccc2c2ccccc12    86 % of control
CC(C)=CCc1cccc(C)c1    105 % of control
O=c1[nH][nH]c(=O)n1O    88 % of control
